Each entry below lists one item and its recorded pEC50 value.
targetSystem: O-GlcNAcase (UniProt Q8VIJ5)
Sequence (Q8VIJ5 1-916): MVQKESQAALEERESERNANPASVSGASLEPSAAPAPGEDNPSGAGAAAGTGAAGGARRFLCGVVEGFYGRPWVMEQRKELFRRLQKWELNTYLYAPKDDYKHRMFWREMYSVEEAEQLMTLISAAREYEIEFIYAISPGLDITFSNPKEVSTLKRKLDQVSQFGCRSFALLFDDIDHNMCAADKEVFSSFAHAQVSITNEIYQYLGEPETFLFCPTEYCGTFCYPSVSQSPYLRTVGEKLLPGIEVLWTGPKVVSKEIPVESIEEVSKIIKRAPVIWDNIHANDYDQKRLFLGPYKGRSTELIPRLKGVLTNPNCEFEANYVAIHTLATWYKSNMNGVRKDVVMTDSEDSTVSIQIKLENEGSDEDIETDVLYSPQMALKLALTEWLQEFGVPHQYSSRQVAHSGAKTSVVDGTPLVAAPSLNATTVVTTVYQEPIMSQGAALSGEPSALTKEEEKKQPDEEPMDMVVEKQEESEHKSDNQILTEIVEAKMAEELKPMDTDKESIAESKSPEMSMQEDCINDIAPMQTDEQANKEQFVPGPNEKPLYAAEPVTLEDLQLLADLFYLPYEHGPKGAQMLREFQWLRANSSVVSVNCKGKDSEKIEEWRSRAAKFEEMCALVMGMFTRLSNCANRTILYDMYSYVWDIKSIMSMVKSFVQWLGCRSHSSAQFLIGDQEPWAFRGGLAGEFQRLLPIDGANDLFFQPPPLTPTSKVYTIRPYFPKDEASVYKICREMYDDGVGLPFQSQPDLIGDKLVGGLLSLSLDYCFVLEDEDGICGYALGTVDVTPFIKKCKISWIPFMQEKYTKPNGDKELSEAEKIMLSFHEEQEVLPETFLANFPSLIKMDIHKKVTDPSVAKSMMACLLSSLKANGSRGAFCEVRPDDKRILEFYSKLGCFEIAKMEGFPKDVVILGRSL
Type: cell-based
statedConditions: cells expressing endogenous O-GlcNAcase (such as rat B35, rat PC-12, human SH-SY5Y), approximately 16 hours treatment; read-out: OGA cellular inhibition (EC50)
pEC50: −log10 of the molar value.
testReadout: pEC50

                                    compound  reportedresult
 0  CCNC1=N[C@@H]2[C@@H](O)[C@H](O)[C@@H](Cn3cc(COc4cccc(F)c4)nn3)O[C@@H]2S1    6.30 to 7.00
 1  CCN(C(=O)OC(C)(C)C)C1=N[C@@H]2[C@@H](O)[C@H](O)[C@@H](CO)O[C@@H]2S1          > 7.00
 2  CCNC1=N[C@@H]2[C@@H](O)[C@H](O)[C@@H](Cn3cc(COc4ccc(C(C)O)cc4)nn3)O[C@@H]2S1 (some centres unmarked)          < 6.00
 3  CCNC1=N[C@@H]2[C@@H](O)[C@H](O)[C@@H](Cn3cc(COc4cccc(C)c4)nn3)O[C@@H]2S1    6.30 to 7.00
 4  CCNC1=N[C@@H]2[C@@H](O)[C@H](O)[C@@H](Cn3cc(COc4ccc(Cl)cc4)nn3)O[C@@H]2S1    6.30 to 7.00
 5  CCNC1=N[C@@H]2[C@@H](O)[C@H](O)[C@@H](Cn3cc(COc4cccc(OC)c4)nn3)O[C@@H]2S1    6.30 to 7.00
 6  CCNC1=N[C@@H]2[C@@H](O)[C@H](O)[C@@H](Cn3cc(Cn4nnc5ccccc54)nn3)O[C@@H]2S1          < 6.00
 7  CCNC1=N[C@@H]2[C@@H](O)[C@H](O)[C@@H](Cn3cc(COc4ccc(C(C)(C)C)cc4)nn3)O[C@@H]2S1    6.30 to 7.00
 8  CCNC1=N[C@@H]2[C@@H](O)[C@H](O)[C@@H](Cn3cc(CCCc4ccccc4)nn3)O[C@@H]2S1          < 6.00
 9  CCNC1=N[C@@H]2[C@@H](O)[C@H](O)[C@@H](Cn3cc(CN(C)c4ccccc4)nn3)O[C@@H]2S1          < 6.00
10  CCNC1=N[C@@H]2[C@@H](O)[C@H](O)[C@@H](Cn3cc(-c4ccccc4)nn3)O[C@@H]2S1          < 6.00
11  CCNC1=N[C@@H]2[C@@H](O)[C@H](O)[C@@H](Cn3cc(COc4cccc(CO)c4)nn3)O[C@@H]2S1          < 6.00
12  CCNC1=N[C@@H]2[C@@H](O)[C@H](O)[C@@H](Cn3cc(C(O)(c4ccccc4)C(F)(F)F)nn3)O[C@@H]2S1 (some centres unmarked)          < 6.00
13  CCNC1=N[C@@H]2[C@@H](O)[C@H](O)[C@@H](Cn3cc(-c4ccccn4)nn3)O[C@@H]2S1          < 6.00
14  CCNC1=N[C@@H]2[C@@H](O)[C@H](O)[C@@H](Cn3cc(COc4cccc(O)c4)nn3)O[C@@H]2S1          < 6.00
15  CCNC1=N[C@@H]2[C@@H](O)[C@H](O)[C@@H](Cn3cc(C(O)c4ccccc4)nn3)O[C@@H]2S1 (some centres unmarked)          < 6.00
16  CCNC1=N[C@@H]2[C@@H](O)[C@H](O)[C@@H](Cn3cc(COc4ccccc4OC)nn3)O[C@@H]2S1          < 6.00
17  CCNC1=N[C@@H]2[C@@H](O)[C@H](O)[C@@H](Cn3cc(CCc4ccccc4)nn3)O[C@@H]2S1    6.00 to 6.30
18  CCNC1=N[C@@H]2[C@@H](O)[C@H](O)[C@@H](CCl)O[C@@H]2S1          > 7.00
19  C/C=C/C(=O)NC1=N[C@@H]2[C@@H](O)[C@H](O)[C@@H](CO)O[C@@H]2S1          < 6.00
20  CCNC1=N[C@@H]2[C@@H](O)[C@H](O)[C@@H](C(O)CCc3ccccc3)O[C@@H]2S1 (single isomer, unassigned)    6.30 to 7.00
21  CCNC1=N[C@@H]2[C@@H](O)[C@H](O)[C@@H](Cn3cc(COc4ccccc4Cl)nn3)O[C@@H]2S1          > 7.00
22  CCNC1=N[C@@H]2[C@@H](O)[C@H](O)[C@@H](Cn3cc(Cc4ccccc4)nn3)O[C@@H]2S1    6.30 to 7.00

---

targetSystem: His-Tagged hOGA (human O-GlcNAcase) (Homo sapiens)
Sequence (O60502 whole entry): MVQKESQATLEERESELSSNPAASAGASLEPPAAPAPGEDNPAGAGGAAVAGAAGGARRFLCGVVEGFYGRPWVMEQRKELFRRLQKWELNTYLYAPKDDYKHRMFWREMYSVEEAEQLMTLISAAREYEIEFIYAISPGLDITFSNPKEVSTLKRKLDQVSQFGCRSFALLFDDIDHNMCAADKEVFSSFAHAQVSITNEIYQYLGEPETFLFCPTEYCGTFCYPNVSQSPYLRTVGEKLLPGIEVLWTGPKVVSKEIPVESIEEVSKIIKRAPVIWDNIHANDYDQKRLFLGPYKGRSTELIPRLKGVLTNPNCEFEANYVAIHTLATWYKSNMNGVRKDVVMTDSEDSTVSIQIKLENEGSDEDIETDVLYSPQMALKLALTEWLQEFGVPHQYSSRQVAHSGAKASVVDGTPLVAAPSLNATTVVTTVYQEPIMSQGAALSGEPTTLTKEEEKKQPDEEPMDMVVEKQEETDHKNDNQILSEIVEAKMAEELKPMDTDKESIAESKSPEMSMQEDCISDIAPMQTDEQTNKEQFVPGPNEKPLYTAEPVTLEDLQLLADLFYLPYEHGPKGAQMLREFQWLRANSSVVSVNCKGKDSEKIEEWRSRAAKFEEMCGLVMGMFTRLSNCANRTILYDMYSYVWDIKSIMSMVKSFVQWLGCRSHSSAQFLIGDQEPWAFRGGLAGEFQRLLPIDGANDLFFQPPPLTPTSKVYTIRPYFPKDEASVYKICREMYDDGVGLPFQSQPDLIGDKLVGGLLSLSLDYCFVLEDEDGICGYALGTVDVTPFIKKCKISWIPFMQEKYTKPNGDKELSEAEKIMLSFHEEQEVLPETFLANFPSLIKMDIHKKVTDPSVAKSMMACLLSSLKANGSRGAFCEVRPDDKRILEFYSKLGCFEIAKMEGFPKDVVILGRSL
experimentDescription: biochemical
Protocol: Human O-GlcNAcase Enzyme Inhibition Assay The following reaction components were added to a final volume of 10 μL in McIlvaine's Buffer (pH 6.5): 20 nM His-Tagged hOGA and 10 μM Fluoroscein mono-beta-D-(2-deoxy-2-N-acetyl) glucopyranoside (FL-GlcNAc; Marker Gene Technologies Inc, Part #M1485). […] The amount of fluorescence measured was plotted against the concentration of inhibitor to produce a sigmoidal dose response curve, from which an IC50 was calculated.
In this section, each of the compounds is paired with its reported IC50.
testReadout: IC50

>>> print(df.to_string())
                                    compound  reportedresult
 0  CCNC1=N[C@@H]2[C@@H](O)[C@H](O)[C@@H](Cn3cc(C(C)(O)c4ccccc4)nn3)O[C@@H]2S1 (stereo partly shown) [compound no. 67]        < 100 nM
 1  CCN(C(=O)OC(C)(C)C)C1=N[C@@H]2[C@@H](O)[C@H](O)[C@@H](COCc3ccccc3)O[C@@H]2S1 [compound no. 16]       > 1000 nM
 2  CCNC1=N[C@@H]2[C@@H](O)[C@H](O)[C@@H](C(O)Cc3ccccc3)O[C@@H]2S1 (stereo partly shown) [compound 52]   100 to 500 nM
 3  CCNC1=N[C@@H]2[C@@H](O)[C@H](O)[C@@H](Cn3cc(COc4ccccc4O)nn3)O[C@@H]2S1 [compound 84]   100 to 500 nM
 4  CCNC1=N[C@@H]2[C@@H](O)[C@H](O)[C@@H](Cn3cc(COc4ccccc4OC)nn3)O[C@@H]2S1 [compound 88]        < 100 nM
 5  CCNC1=N[C@@H]2[C@@H](O)[C@H](O)[C@@H](Cn3cc(COc4cccc(C(C)O)c4)nn3)O[C@@H]2S1 (stereo partly shown) [compound 76]        < 100 nM
 6  CCNC1=N[C@@H]2[C@@H](O)[C@H](O)[C@@H](Cn3cc(COc4ccccc4Cl)nn3)O[C@@H]2S1 [compound 86]        < 100 nM
 7  CCNC1=N[C@@H]2[C@@H](O)[C@H](O)[C@@H](C(=O)NCCc3ccc(Oc4ccccc4)cc3)O[C@@H]2S1 [compound no. 33]       > 1000 nM
 8  CCN(C(=O)Oc1ccccc1)C1=N[C@@H]2[C@@H](O)[C@H](O)[C@@H](CO)O[C@@H]2S1 [compound no. 63]   100 to 500 nM
 9  CCNC1=N[C@@H]2[C@@H](O)[C@H](O)[C@@H]([C@H](O)CCCc3ccccc3)O[C@@H]2S1 [compound no. 55]       > 1000 nM
10  CCNC1=N[C@@H]2[C@@H](O)[C@H](O)[C@@H](CF)O[C@@H]2S1 [compound no. 4]        < 100 nM
11  CCNC1=N[C@@H]2[C@@H](O)[C@H](O)[C@@H](Cn3cc(CCCc4ccccc4)nn3)O[C@@H]2S1 [compound no. 30]   100 to 500 nM
12  CCNC1=N[C@@H]2[C@@H](O)[C@H](O)[C@@H](CN)O[C@@H]2S1 [compound no. 61]   100 to 500 nM
13  CCNC1=N[C@@H]2[C@@H](O)[C@H](O)[C@@H](Cn3cc(COc4ccc(C(C)O)cc4)nn3)O[C@@H]2S1 (stereo partly shown) [compound 90]        < 100 nM
14  CCNC1=N[C@@H]2[C@@H](O)[C@H](O)[C@@H](Cn3cc(COc4ccccc4C(C)O)nn3)O[C@@H]2S1 (stereo partly shown) [compound 85]   100 to 500 nM
15  CCNC1=N[C@@H]2[C@@H](O)[C@H](O)[C@@H](Cn3cc(Cc4ccccc4)nn3)O[C@@H]2S1 [compound no. 14]        < 100 nM
16  CCNC1=N[C@@H]2[C@@H](O)[C@H](O)[C@@H](Cn3cc(Cn4ccnc4-c4cccs4)nn3)O[C@@H]2S1 [compound 97]        < 100 nM
17  CCNC1=N[C@@H]2[C@@H](O)[C@H](O)[C@@H](C(=O)N(C)C)O[C@@H]2S1 [compound no. 28]       > 1000 nM
18  CCNC1=N[C@@H]2[C@@H](O)[C@H](O)[C@@H](Cn3cc(Cn4nnc5ccccc54)nn3)O[C@@H]2S1 [compound no. 57]        < 100 nM
19  CCNC1=N[C@@H]2[C@@H](O)[C@H](O)[C@@H](Cn3nnnc3C(=O)c3ccccc3)O[C@@H]2S1 [compound 105]       > 1000 nM
20  CCNC1=N[C@@H]2[C@@H](O)[C@H](O)[C@@H](Cn3cc(COc4ccc(C(C)(C)C)cc4)nn3)O[C@@H]2S1 [compound 94]   100 to 500 nM
21  CCNC1=N[C@@H]2[C@@H](O)[C@H](O)[C@@H](Cn3cc(COc4ccccc4CNC)nn3)O[C@@H]2S1 [compound 83]  500 to 1000 nM
22  CCNC1=N[C@@H]2[C@@H](O)[C@H](O)[C@@H](C(=O)NCCc3ccc(-c4ccccc4)cc3)O[C@@H]2S1 [compound no. 23]       > 1000 nM
23  CCNC1=N[C@@H]2[C@@H](O)[C@H](O)[C@@H](Cn3cc(COc4cccc(C#N)c4)nn3)O[C@@H]2S1 [compound 73]        < 100 nM
24  CCNC1=N[C@@H]2[C@@H](OC)[C@H](OC)[C@@H](COC)O[C@@H]2S1 [compound no. 13]       > 1000 nM
25  CCNC1=N[C@@H]2[C@@H](O)[C@H](O)[C@@H]([C@@H](O)CCCc3ccccc3)O[C@@H]2S1 [compound no. 56]   100 to 500 nM
26  CCNC1=N[C@@H]2[C@@H](O)[C@H](O)[C@@H](Cn3cc(COc4cccc(CO)c4)nn3)O[C@@H]2S1 [compound 75]        < 100 nM
27  CCNC1=N[C@@H]2[C@@H](O)[C@H](O)[C@@H](Cn3cc(C(O)(c4ccccc4)C(F)(F)F)nn3)O[C@@H]2S1 (stereo partly shown) [compound 70]        < 100 nM
